Molecular target: Coagulation factor XI (Homo sapiens)
Sequence (P03951 19-387 limits assumed): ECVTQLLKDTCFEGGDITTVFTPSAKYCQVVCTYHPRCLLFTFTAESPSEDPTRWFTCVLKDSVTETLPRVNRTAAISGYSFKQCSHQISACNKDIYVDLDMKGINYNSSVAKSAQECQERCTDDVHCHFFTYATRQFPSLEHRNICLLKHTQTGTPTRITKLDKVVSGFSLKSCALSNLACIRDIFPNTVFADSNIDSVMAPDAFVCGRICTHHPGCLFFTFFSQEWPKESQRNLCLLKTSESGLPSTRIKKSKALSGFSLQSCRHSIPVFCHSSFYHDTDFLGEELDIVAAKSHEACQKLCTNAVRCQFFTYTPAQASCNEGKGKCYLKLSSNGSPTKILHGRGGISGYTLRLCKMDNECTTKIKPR
Sequence (P03951 388-625 limits assumed): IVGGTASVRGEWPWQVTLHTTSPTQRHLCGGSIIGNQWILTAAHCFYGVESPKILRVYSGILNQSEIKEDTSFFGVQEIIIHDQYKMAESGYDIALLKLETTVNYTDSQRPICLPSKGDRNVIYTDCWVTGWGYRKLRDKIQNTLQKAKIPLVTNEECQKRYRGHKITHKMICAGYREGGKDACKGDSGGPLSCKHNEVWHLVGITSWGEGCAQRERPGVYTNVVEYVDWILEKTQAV
Experiment: Inhibition of […] human plasma F11a catalytic domain expressed in Escherichia coli strain BL21(DE3) using D-Leu-Pro-Arg*Rh110-D-Pro as substrate preincubated for 60 mins followed by substrate addition and measured after 60 mins by fluorescence assay
Recorded IC50 values for a group of molecules are listed next.

molecule	IC50 [nM]
CC(C)c1cc(-c2ccc3c(c2)[C@H](N)CO3)cc([C@H](O)Cn2ccc3cccc(C(=O)O)c32)c1	10
CC(C)c1cc(-c2ccc3c(c2)[C@H](N)CO3)cc(C(O)Cn2ccc3cccc(C(=O)O)c32)c1 (mixture of isomers)	45
CC(C)(O)c1cc(COc2ccccc2CC(=O)O)cc(-c2ccc3c(c2)CNCC3)c1	430
